FYI, the data here is from patent US8551507B2.

- STATED_CONDITIONS: 72 h
The label YES is reserved for Concentration in water solution With Rubusoside strictly under 200 µg/mL; NO covers values equal to or above it.

COMPOUND	LABEL
CC(C)/N=c1\cc2n(-c3ccc(Cl)cc3)c3ccccc3nc-2cc1Nc1ccc(Cl)cc1 [Clofazimine, clofazimine, reference compound]	YES
CC(=O)O[C@H]1C(=O)[C@@]2(C)[C@H]([C@H](OC(=O)c3ccccc3)[C@]3(O)C[C@H](OC(=O)[C@H](O)[C@@H](NC(=O)c4ccccc4)c4ccccc4)C(C)=C1C3(C)C)[C@]1(OC(C)=O)CO[C@@H]1C[C@@H]2O [Paclitaxel, paclitaxel, reference compound]	YES
C[C@@H]1CC[C@H]2[C@@H](C)C(=O)O[C@@H]3O[C@@]4(C)CC[C@@H]1[C@]32OO4 [Artemisinin, artemisinin, reference compound]	NO
COc1cc(C2Oc3cc([C@H]4Oc5cc(O)cc(O)c5C(=O)[C@@H]4O)ccc3OC2CO)ccc1O (some centres unmarked)	YES
Cc1coc2c1C(=O)C(=O)c1c-2ccc2c1CCCC2(C)C	YES
COc1cc(/C=C/C(=O)CC(=O)/C=C/c2ccc(O)c(OC)c2)ccc1O	NO
COC1=C(OC)C(=O)C(C/C=C(\C)CC/C=C(\C)CC/C=C(\C)CC/C=C(\C)CC/C=C(\C)CC/C=C(\C)CC/C=C(\C)CC/C=C(\C)CC/C=C(\C)CCC=C(C)C)=C(C)C1=O	YES
Cc1ccc(-c2cc(C(F)(F)F)nn2-c2ccc(S(N)(=O)=O)cc2)cc1 [Celecoxib, celecoxib, reference compound]	NO

----------
- STATED_CONDITIONS: 72 h
Listed compounds paired with reported Concentration in water solution With Geniposide
MEASURED_ENDPOINT: Concentration in water solution With Geniposide (µg/mL)

> print(dat)
                                   compound  quantitative.result
1  COc1cc(/C=C/C(=O)CC(=O)/C=C/c2ccc(O)c(OC)c2)ccc1O                    4
2   Cc1coc2c1C(=O)C(=O)c1c-2ccc2c1CCCC2(C)C                  0.1
3  Cc1ccc(-c2cc(C(F)(F)F)nn2-c2ccc(S(N)(=O)=O)cc2)cc1 [Celecoxib, celecoxib, reference compound]                    3
4  C[C@@H]1CC[C@H]2[C@@H](C)C(=O)O[C@@H]3O[C@@]4(C)CC[C@@H]1[C@]32OO4 [Artemisinin, artemisinin, reference compound]                  146

----------
- STATED_CONDITIONS: 72 h
MEASURED_ENDPOINT: Concentration in water solution With Geniposide (µg/mL)

COMPOUND	READING_UNIT	QUANTITATIVE_RESULT
CC(C)/N=c1\cc2n(-c3ccc(Cl)cc3)c3ccccc3nc-2cc1Nc1ccc(Cl)cc1 [Clofazimine, clofazimine, reference compound]	µg/mL	48
CC(=O)O[C@H]1C(=O)[C@@]2(C)[C@H]([C@H](OC(=O)c3ccccc3)[C@]3(O)C[C@H](OC(=O)[C@H](O)[C@@H](NC(=O)c4ccccc4)c4ccccc4)C(C)=C1C3(C)C)[C@]1(OC(C)=O)CO[C@@H]1C[C@@H]2O [Paclitaxel, paclitaxel, reference compound]	µg/mL	1
COc1cc(C2Oc3cc([C@H]4Oc5cc(O)cc(O)c5C(=O)[C@@H]4O)ccc3OC2CO)ccc1O (stereo partly drawn)	µg/mL	16

----------
The following compounds are shown together with reported Concentration in water solution With Paeoniflorin values.
- STATED_CONDITIONS: 72 h
MEASURED_ENDPOINT: Concentration in water solution With Paeoniflorin (ng/mL)

COMPOUND	READING_UNIT	QUANTITATIVE_RESULT
CC(=O)O[C@H]1C(=O)[C@@]2(C)[C@H]([C@H](OC(=O)c3ccccc3)[C@]3(O)C[C@H](OC(=O)[C@H](O)[C@@H](NC(=O)c4ccccc4)c4ccccc4)C(C)=C1C3(C)C)[C@]1(OC(C)=O)CO[C@@H]1C[C@@H]2O [Paclitaxel, paclitaxel, reference compound]	ng/mL	20000
Cc1ccc(-c2cc(C(F)(F)F)nn2-c2ccc(S(N)(=O)=O)cc2)cc1 [Celecoxib, celecoxib, reference compound]	ng/mL	253000
COc1cc(C2Oc3cc([C@H]4Oc5cc(O)cc(O)c5C(=O)[C@@H]4O)ccc3OC2CO)ccc1O (stereo partly shown)	ng/mL	37000
Cc1coc2c1C(=O)C(=O)c1c-2ccc2c1CCCC2(C)C	ng/mL	23000
CC(C)/N=c1\cc2n(-c3ccc(Cl)cc3)c3ccccc3nc-2cc1Nc1ccc(Cl)cc1 [Clofazimine, clofazimine, reference compound]	ng/mL	565000
C[C@@H]1CC[C@H]2[C@@H](C)C(=O)O[C@@H]3O[C@@]4(C)CC[C@@H]1[C@]32OO4 [Artemisinin, artemisinin, reference compound]	ng/mL	218000
COc1cc(/C=C/C(=O)CC(=O)/C=C/c2ccc(O)c(OC)c2)ccc1O	ng/mL	5000

----------
- TEST_SUMMARY: physchem
- STATED_CONDITIONS: 25 °C, water, thermodynamic from solid
Measured solubility at 72 h values are reported for all entries that follow.
MEASURED_ENDPOINT: solubility at 72 h (µg/mL)

> print(dat)
                                   compound   measured.endpoint  quantitative.result
1  CC(C)/N=c1\cc2n(-c3ccc(Cl)cc3)c3ccccc3nc-2cc1Nc1ccc(Cl)cc1 [Clofazimine, clofazimine, reference compound]  solubility at 72 h                  7.6
2  C[C@@H]1CC[C@H]2[C@@H](C)C(=O)O[C@@H]3O[C@@]4(C)CC[C@@H]1[C@]32OO4 [Artemisinin, artemisinin, reference compound]  solubility at 72 h                   53

----------
- TEST_SUMMARY: physchem
- STATED_CONDITIONS: 37 °C, water
MEASURED_ENDPOINT: solubility

COMPOUND	RESULT
C=C1C[C@@]23CC[C@H]4[C@@](C)(CCC[C@@]4(C)C(=O)O[C@@H]4O[C@H](CO)[C@@H](O)[C@H](O)[C@H]4O)[C@@H]2CC[C@]1(O[C@@H]1O[C@H](CO)[C@@H](O)[C@H](O)[C@H]1O)C3 [Rubusoside]	~800 mg/mL

----------
- STATED_CONDITIONS: 72 h
MEASURED_ENDPOINT: Concentration in water solution With Astragaloside

> print(dat)
                                   compound     result
1  CC(C)/N=c1\cc2n(-c3ccc(Cl)cc3)c3ccccc3nc-2cc1Nc1ccc(Cl)cc1 [Clofazimine, clofazimine, reference compound]  400 ng/mL
2  COc1cc(C2Oc3cc([C@H]4Oc5cc(O)cc(O)c5C(=O)[C@@H]4O)ccc3OC2CO)ccc1O (stereo partly drawn)    0 ng/mL
3  C[C@@H]1CC[C@H]2[C@@H](C)C(=O)O[C@@H]3O[C@@]4(C)CC[C@@H]1[C@]32OO4 [Artemisinin, artemisinin, reference compound]    0 ng/mL
4  COc1cc(/C=C/C(=O)CC(=O)/C=C/c2ccc(O)c(OC)c2)ccc1O    0 ng/mL
5   Cc1coc2c1C(=O)C(=O)c1c-2ccc2c1CCCC2(C)C    0 ng/mL
6  Cc1ccc(-c2cc(C(F)(F)F)nn2-c2ccc(S(N)(=O)=O)cc2)cc1 [Celecoxib, celecoxib, reference compound]    0 ng/mL

----------
- STATED_CONDITIONS: 72 h
Consider the following compounds and their measured Concentration in water solution With Mogroside V readings.
MEASURED_ENDPOINT: Concentration in water solution With Mogroside V (ng/mL)

COMPOUND	READING_UNIT	QUANTITATIVE_RESULT
C[C@@H]1CC[C@H]2[C@@H](C)C(=O)O[C@@H]3O[C@@]4(C)CC[C@@H]1[C@]32OO4 [Artemisinin, artemisinin, reference compound]	ng/mL	148000
CC(=O)O[C@H]1C(=O)[C@@]2(C)[C@H]([C@H](OC(=O)c3ccccc3)[C@]3(O)C[C@H](OC(=O)[C@H](O)[C@@H](NC(=O)c4ccccc4)c4ccccc4)C(C)=C1C3(C)C)[C@]1(OC(C)=O)CO[C@@H]1C[C@@H]2O [Paclitaxel, paclitaxel, reference compound]	ng/mL	7000
Cc1coc2c1C(=O)C(=O)c1c-2ccc2c1CCCC2(C)C [Tanshinone IIA, tanshinone IIA]	ng/mL	500
COc1cc(/C=C/C(=O)CC(=O)/C=C/c2ccc(O)c(OC)c2)ccc1O [Curcumin, curcumin]	ng/mL	44000
